Numbers sourced from ChEMBL document CHEMBL3875191.

system: MAGI; experiment: Inhibition of HIV1 3B gp41-induced virus-cell fusion between HIV1 3B to MAGI cells expressing CXCR4-tropic treated 3 hrs post infection measured after 48 hrs by beta-galactosidase based chemiluminescence assay; conditions: Human immunodeficiency virus 1
Readout Label: IC90 (µM)
Numbers only, in µM.

Sample answers from the record:
- Smiles Notation: "O=C(CCC(=O)Nc1ccc(C(=O)N[C@@H](Cc2c[nH]c3ccccc23)C(=O)O)cc1OCCc1c[nH]c2ccccc12)NCCOCCOCCOCCNC(=O)CCC(=O)Nc1ccc(C(=O)N[C@@H](Cc2c[nH]c3ccccc23)C(=O)O)cc1OCCc1c[nH]c2ccccc12"
  IC90, µM: 70
- Smiles Notation: "O=C(CCc1c[nH]c2ccccc12)NCCCCCC(=O)Nc1ccc(C(=O)N[C@@H](Cc2c[nH]c3ccccc23)C(=O)O)cc1OCc1ccc(Cl)cc1"
  IC90, µM: 27.1

Field: next molecule
Record O=C(CCc1c[nH]c2ccccc12)NCCCCCC(=O)Nc1ccc(C(=O)N[C@@H](Cc2c[nH]c3ccccc23)C(=O)O)cc1OCCc1c[nH]c2ccccc12 . Reported IC90: 30.5

---

Consider the following compounds; for each one, report its RUmax.
test system: Human immunodeficiency virus 1; experiment: Binding affinity to wild type HIV-1 Fe2(env2.0)3 peptide model of gp41 hydrophobic pocket at compound to peptide ratio of 1:1 by surface plasmon resonance assay
Answers are plain numbers.

Sample answers from the record:
- Smiles Notation: "O=C(CCc1c[nH]c2ccccc12)NCCCCCC(=O)Nc1ccc(C(=O)N[C@@H](Cc2c[nH]c3ccccc23)C(=O)O)cc1OCc1ccc(Cl)cc1"
  RUmax: 93
- Smiles Notation: "O=C(CCC(=O)Nc1ccc(C(=O)N[C@@H](Cc2c[nH]c3ccccc23)C(=O)O)cc1OCCc1c[nH]c2ccccc12)NCCOCCOCCOCCNC(=O)CCC(=O)Nc1ccc(C(=O)N[C@@H](Cc2c[nH]c3ccccc23)C(=O)O)cc1OCCc1c[nH]c2ccccc12"
  RUmax: 160
- Smiles Notation: "O=C(CCc1c[nH]c2ccccc12)NCCCCCC(=O)Nc1ccc(C(=O)N[C@@H](Cc2c[nH]c3ccccc23)C(=O)O)cc1OCCc1c[nH]c2ccccc12"
  RUmax: 95
- Smiles Notation: "O=C(CCC(=O)Nc1ccc(C(=O)N[C@@H](Cc2c[nH]c3ccccc23)C(=O)O)cc1OCc1ccc(Cl)cc1)NCCOCCOCCOCCNC(=O)CCC(=O)Nc1ccc(C(=O)N[C@@H](Cc2c[nH]c3ccccc23)C(=O)O)cc1OCc1ccc(Cl)cc1"
  RUmax: 157

Required: RUmax, one value per compound below.
1. Nc1ccc(C(=O)N[C@@H](Cc2c[nH]c3ccccc23)C(=O)O)cc1OCc1ccc(Cl)cc1
2. Nc1ccc(C(=O)N[C@@H](Cc2c[nH]c3ccccc23)C(=O)O)cc1OCCc1c[nH]c2ccccc12

Reply:
56
59

---

assay: Inhibition of fluorescently labeled C-terminal HR2 probe peptide binding to wild type HIV-1 Fe(env2.0)3 peptide model of gp41 hydrophobic pocket at compound to protein ratio of 1:1 by fluorescence assay; design: species or system Human immunodeficiency virus 1
Readout Label: Ki

Sample answers from the record:
- Smiles Notation: "O=C(CCc1c[nH]c2ccccc12)NCCCCCC(=O)Nc1ccc(C(=O)N[C@@H](Cc2c[nH]c3ccccc23)C(=O)O)cc1OCCc1c[nH]c2ccccc12"
  Readout Label: "Ki"
  Result: "1.2 µM"
- Smiles Notation: "Nc1ccc(C(=O)N[C@@H](Cc2c[nH]c3ccccc23)C(=O)O)cc1OCCc1c[nH]c2ccccc12"
  Readout Label: "Ki"
  Result: "7.2 µM"
- Smiles Notation: "Nc1ccc(C(=O)N[C@@H](Cc2c[nH]c3ccccc23)C(=O)O)cc1OCc1ccc(Cl)cc1"
  Readout Label: "Ki"
  Result: "15 µM"
- Smiles Notation: "O=C(CCC(=O)Nc1ccc(C(=O)N[C@@H](Cc2c[nH]c3ccccc23)C(=O)O)cc1OCc1ccc(Cl)cc1)NCCOCCOCCOCCNC(=O)CCC(=O)Nc1ccc(C(=O)N[C@@H](Cc2c[nH]c3ccccc23)C(=O)O)cc1OCc1ccc(Cl)cc1"
  Readout Label: "Ki"
  Result: "5.3 to 8.5 µM"
- Smiles Notation: "O=C(CCC(=O)Nc1ccc(C(=O)N[C@@H](Cc2c[nH]c3ccccc23)C(=O)O)cc1OCCc1c[nH]c2ccccc12)NCCOCCOCCOCCNC(=O)CCC(=O)Nc1ccc(C(=O)N[C@@H](Cc2c[nH]c3ccccc23)C(=O)O)cc1OCCc1c[nH]c2ccccc12"
  Readout Label: "Ki"
  Result: "1 to 2.3 µM"

Field: next compound
Record O=C(CCc1c[nH]c2ccccc12)NCCCCCC(=O)Nc1ccc(C(=O)N[C@@H](Cc2c[nH]c3ccccc23)C(=O)O)cc1OCc1ccc(Cl)cc1 . Reported Ki: 3.4 µM
